// values below are reported EC50
ASSAYED TARGET: SST2 (Homo sapiens, UniProt P30874)
Construct: host or cells: PathHunter CHO-K1 SST2 cells
Sequence (P30874 whole entry): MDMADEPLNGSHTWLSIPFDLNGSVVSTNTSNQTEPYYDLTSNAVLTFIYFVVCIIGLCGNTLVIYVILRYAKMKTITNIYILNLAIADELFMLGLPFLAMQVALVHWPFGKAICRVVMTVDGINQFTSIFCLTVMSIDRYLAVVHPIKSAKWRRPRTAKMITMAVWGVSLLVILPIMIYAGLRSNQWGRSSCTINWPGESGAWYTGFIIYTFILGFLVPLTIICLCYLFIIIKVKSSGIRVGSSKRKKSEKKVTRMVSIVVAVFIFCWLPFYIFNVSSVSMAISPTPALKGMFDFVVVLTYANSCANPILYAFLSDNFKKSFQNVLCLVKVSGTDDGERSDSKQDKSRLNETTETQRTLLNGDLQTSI
METHOD NOTES: PathHunter CHO-K1 SST2 Internalization Assay
Type: cell-based
CONDITION SET: PathHunter CHO-K1 SST2 cells; 90 min at 37 C; luminescence; read-out: Internalization EC50
Kindly answer with a numeric value in nM, unit omitted.

# COMPOUND, ASSAYED TARGET, MEASURED
measured = [
    ("CC[C@H](C)[C@@H]([C@@H](CC(=O)N1CCC[C@H]1[C@H](OC)[C@@H](C)C(=O)N[C@H](C)[C@@H](O)c1ccccc1)OC)N(C)C(=O)[C@@H](NC(=O)[C@H](C(C)C)N(C)C(=O)OCc1ccc(NC(=O)[C@H](CCCNC(N)=O)NC(=O)[C@@H](NC(=O)c2cc(OCCOCCC(=O)NCCNc3ncc(-c4cc(C)cc(F)c4)c(N4CCC(N)CC4)c3-c3nc4ccc(Cl)cc4[nH]3)cc(C(=O)NCC(=O)O)c2)C(C)C)cc1)C(C)C", "SST2 (Homo sapiens, UniProt P30874)", 7.4),
]

Okay, now this compound:
Returns the measured EC50 for the input compound. Input: CC[C@H](C)[C@@H]([C@@H](CC(=O)N1CCC[C@H]1[C@H](OC)[C@@H](C)C(=O)N[C@H](C)[C@@H](O)c1ccccc1)OC)N(C)C(=O)[C@@H](NC(=O)[C@H](C(C)C)N(C)C(=O)OCc1ccc(NC(=O)[C@H](CCCNC(N)=O)NC(=O)[C@@H](NC(=O)c2ccc(NC(=O)CCOCCC(=O)NCCNc3ncc(-c4cc(C)cc(F)c4)c(N4CCC(N)CC4)c3-c3nc4ccc(Cl)cc4[nH]3)cc2O[C@@H]2OC(C(=O)O)[C@@H](O)[C@H](O)[C@H]2O)C(C)C)cc1)C(C)C (some centres unmarked)
11

---

Known EC50 of a selection of compounds
ASSAYED TARGET: human somatostatin receptor subtype 2 (Homo sapiens)
Construct: expressed in transfected cells
METHOD NOTES: Functional assay for SSTR2 agonists (HTRF cAMP)
Type: cell-based
CONDITION SET: CHO-K1 cells stably expressing human SST2; NKH477-stimulated cAMP; 20 min at 37 C; read-out: hSST2 cAMP Avg EC50
Entry rule: numbers only, all in pM.

# COMPOUND, MEASURED
measured = [
    ("CC[C@H](C)[C@@H]([C@@H](CC(=O)N1CCC[C@H]1[C@H](OC)[C@@H](C)C(=O)N[C@H](C)[C@@H](O)c1ccccc1)OC)N(C)C(=O)[C@@H](NC(=O)[C@H](C(C)C)N(C)C(=O)OCc1ccc(NC(=O)[C@H](CCCNC(N)=O)NC(=O)[C@@H](NC(=O)c2cc(NC(=O)CCOCCC(=O)N(C)CC(=O)NCCNc3ncc(-c4cc(C)cc(F)c4)c(N4CCC(N)CC4)c3-c3nc4ccc(Cl)cc4[nH]3)cc(C(=O)NC[C@@H](O)C(=O)O)c2)C(C)C)cc1)C(C)C", 260),
]

Shift focus to the following entry.
Which measured EC50 value corresponds to CC[C@H](C)[C@@H]([C@@H](CC(=O)N1CCC[C@H]1[C@H](OC)[C@@H](C)C(=O)N[C@H](C)[C@@H](O)c1ccccc1)OC)N(C)C(=O)[C@@H](NC(=O)[C@H](C(C)C)N(C)C(=O)OCc1ccc(NC(=O)[C@H](CCCNC(N)=O)NC(=O)[C@@H](NC(=O)[C@H](CCCO)NC(=O)CCOCCC(=O)NCCNc2ncc(-c3cc(C)cc(F)c3)c(N3CCC(N)CC3)c2-c2nc3cc(Cl)ccc3[nH]2)C(C)C)c(O[C@@H]2O[C@H](C(=O)NCC(=O)O)[C@@H](O)[C@H](O)[C@H]2O)c1)C(C)C [Compound 213] ?
89
